# testSummary: Unbound brain-to-plasma concentration ratio in non-human primates by positron emission tomography
# Assay type: ADME
# measurementContext: brain and plasma (unbound), read-out: K(p,uu,brain)
measuredAttribute: Kp uu
Answer field: number only, no words.

**Q:** Entry COc1cc2ncnc(Nc3cccc(Cl)c3F)c2cc1OC(=O)N1CCN(C)C[C@H]1C [AZD-3759] has what Kp uu?
**A:** 0.52

---

# testSummary: MRT in Wistar Han rat at 2 mg/kg, iv by LC-MS/MS analysis
# Type: ADME, organism-based
# measurementContext: in vivo
measuredAttribute: MRT (h)
Lab book: enter the figure in h, no units written.

**Q:** Give the measured MRT of O[C@H]1COC[C@H]1N1CC[C@@H](c2cc3nc(Nc4cnn([C@@H]5CC5(F)F)c4Cl)ncc3cc2Cl)[C@H](F)C1 .
**A:** 3.9

**Q:** Given the entry CC(C)(O)Cn1ncc(Nc2ncc3cc(Cl)c(C4CCN(C5COC5)CC4)cc3n2)c1Cl , report its measured MRT.
**A:** 2.7

**Q:** Name the recorded MRT for Cc1c(Nc2ncc3cc(Cl)c(C4CCN([C@@H]5COC[C@@H]5O)CC4)cc3n2)cnn1[C@@H]1CC1(F)F .
**A:** 3.7

**Q:** I'd like to know its MRT. The molecule in question is Cc1c(Nc2ncc3cc(Cl)c(C4CCN(C5COC5)CC4)cc3n2)cnn1C1CC1
**A:** 2.1

**Q:** Suppose we examine the molecule FC1CN(C2COC2)CCC1c1cc2nc(Nc3cnn(C4CC4)c3Cl)ncc2cc1Cl (stereo not given) ; what MRT value has been reported?
**A:** 3.8

// data source = ChEMBL document CHEMBL5042510
